system: human PBMCs; test: MTS cytotoxicity in human PBMCs; conditions: seven days
value_kind: TC50/nM

Sample answers from the record:
molecule	TC50/nM
COc1cccc(-c2c(F)c(F)c(NC(=O)c3occc3C(=O)O)c(F)c2F)c1 [Compound 8]	>100000 nM
O=C(O)C1=C(C(=O)Nc2c(F)c(F)c(-c3cccc(OC(F)(F)F)c3)c(F)c2F)CSC1 [Compound 25]	>100000 nM
COc1cccc(-c2ccc(NC(=O)C3=C(C(=O)O)CCC3)c(F)c2)c1 [Compound 6]	>100000 nM

Quick one: TC50/nM for O=C(O)C1=C(C(=O)Nc2ccc(OCc3c(F)cccc3Cl)c(Cl)c2)CCC1 [Compound 3] ? 44800 nM

* * *

molecular target: dihydroorotate dehydrogenase (DHODH) (Homo sapiens); assay: DHODH inhibition, in vitro assay; type: biochemical; settings: DHODH IC50/nM, Table 1
Reported IC50 is given for each of the following compounds.

Sample answers from the record:
O=C(O)C1=C(C(=O)Nc2c(F)c(F)c(-c3cccc(OC(F)(F)F)c3)c(F)c2F)CCC1 < 20 nM
COc1cccc(-c2c(F)c(F)c(NC(=O)c3occc3C(=O)O)c(F)c2F)c1 < 20 nM
O=C(O)C1=C(C(=O)Nc2ccc(OCc3c(F)cccc3Cl)c(Cl)c2)CCC1 < 20 nM
O=C(O)C1=C(C(=O)Nc2c(F)cc(-c3ccccc3Cl)cc2F)CSC1 < 20 nM

Quick one: IC50 for COc1ccc(-c2ccc(NC(=O)C3=C(C(=O)O)CCC3)cc2Cl)cc1 ? 20 to 200 nM

* * *

system: HIV-191US005; test: Anti-HIV efficacy in fresh human PBMCs (RT activity and p24 ELISA); format: cell-based, HIV-1; details: Human immunodeficiency virus 1, PBMC, 168 h, Endpoint RT, seven days, read-out: EC90/nM
value_kind: EC90 (nM)
Form entry: value (nM) — number only.

Quick one: EC90 for COc1cccc(-c2c(F)c(F)c(NC(=O)c3occc3C(=O)O)c(F)c2F)c1 ? 2700

Quick one: EC90 for COc1ccc(-c2ccc(NC(=O)C3=C(C(=O)O)CCC3)cc2Cl)cc1 ? 12200

* * *

biological target: dihydroorotate dehydrogenase (DHODH) (Homo sapiens, UniProt Q02127); assay: DHODH inhibition, in vitro assay; format: biochemical; conditions: read-out: DHODH IC50/nM; Table 2
Sequence (Q02127 whole entry): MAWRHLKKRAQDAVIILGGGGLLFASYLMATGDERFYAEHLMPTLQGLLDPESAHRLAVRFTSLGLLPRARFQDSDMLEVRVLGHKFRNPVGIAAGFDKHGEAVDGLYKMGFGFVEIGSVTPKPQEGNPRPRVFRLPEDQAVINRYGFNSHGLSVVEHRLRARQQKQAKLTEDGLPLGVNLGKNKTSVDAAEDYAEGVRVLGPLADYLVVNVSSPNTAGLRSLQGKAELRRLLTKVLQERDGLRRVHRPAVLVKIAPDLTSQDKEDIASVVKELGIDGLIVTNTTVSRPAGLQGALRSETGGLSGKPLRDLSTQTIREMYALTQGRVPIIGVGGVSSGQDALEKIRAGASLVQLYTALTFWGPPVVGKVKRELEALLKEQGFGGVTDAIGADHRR
value_kind: IC50

Quick one: IC50 for O=C(Nc1c(F)c(F)c(-c2cccc(OC(F)(F)F)c2)c(F)c1F)c1ccsc1C(=O)O ? < 20 nM

* * *

biological target: dihydroorotate dehydrogenase (DHODH) (Homo sapiens, UniProt Q02127); experiment: DHODH inhibition, in vitro assay; format: biochemical; conditions: Table 9; read-out: DHODH IC50/nM
value_kind: IC50

Quick one: IC50 for O=C(O)C1=C(C(=O)Nc2c(F)c(F)c(-c3cccc(OC(F)(F)F)c3)c(F)c2F)CCC1 ? < 20 nM

* * *

Reported IC50 is given for each of the following compounds.
target: dihydroorotate dehydrogenase (DHODH) (Homo sapiens); experiment: DHODH inhibition, in vitro assay; assay type: biochemical; details: Table 4; read-out: DHODH IC50/nM

Sample answers from the record:
O=C(Nc1c(F)cc(-c2cccc(OC(F)(F)F)c2)cc1F)c1ccsc1C(=O)O < 20 nM
O=C(Nc1c(F)c(F)c(-c2cccc(OC(F)(F)F)c2)c(F)c1F)c1ccsc1C(=O)O < 20 nM

Continue with the next compound.
Quick one: IC50 for O=C(O)C1=C(C(=O)Nc2ccc(OCc3c(F)cccc3Cl)c(Cl)c2)CCC1 ? < 20 nM

* * *

target: dihydroorotate dehydrogenase (DHODH) (Homo sapiens); assay: DHODH inhibition, in vitro assay; assay type: biochemical; conditions: Table 8; read-out: DHODH IC50/nM
value_kind: IC50

molecule	measured_on	value_kind	reported
COc1ccc(-c2ccc(NC(=O)C3=C(C(=O)O)CCC3)cc2Cl)cc1	dihydroorotate dehydrogenase (DHODH) (Homo sapiens)	IC50	20 to 200 nM

Form field: IC50 recorded for COc1cccc(-c2c(F)c(F)c(NC(=O)c3occc3C(=O)O)c(F)c2F)c1 with dihydroorotate dehydrogenase (DHODH) (Homo sapiens) (enter value) < 20 nM

Form field: IC50 recorded for O=C(O)C1=C(C(=O)Nc2c(F)cc(-c3cccc(OC(F)(F)F)c3)cc2F)CCC1 with dihydroorotate dehydrogenase (DHODH) (Homo sapiens) (enter value) 20 to 200 nM

* * *

Reported IC50 is given for each of the following molecules.
target: UniProt Q02127; assay: DHODH inhibition, in vitro assay; assay type: biochemical; conditions: DHODH IC50/nM, Table 1

molecule	measured_on	value_kind	reported
O=C(Nc1ccc(-c2ccccc2)cc1)Nc1ccccc1C(=O)O [Compound 7, 2-(3-biphenyl-4-ylureido)benzoic acid]	UniProt Q02127	IC50	< 20 nM
O=C(O)C1=C(C(=O)Nc2c(F)c(F)c(-c3cccc(OC(F)(F)F)c3)c(F)c2F)CSC1 [Compound 25]	UniProt Q02127	IC50	< 20 nM

Continue with the next molecule.
Quick one: IC50 for CN(C)c1ccc(-c2ccc(NC(=O)C3=C(C(=O)O)CCC3)cc2Cl)cc1 [Compound 23] ? 20 to 200 nM

* * *

tested on: HIV-191US005; test: Anti-HIV efficacy in fresh human PBMCs (RT activity and p24 ELISA); type: cell-based, HIV-1; settings: Human immunodeficiency virus 1, PBMC, 168 h, Endpoint RT, seven days, read-out: EC90/nM
value_kind: EC90 (nM)
Form entry: value (nM) — number only.

Sample answers from the record:
CN(C)c1ccc(-c2ccc(NC(=O)C3=C(C(=O)O)CCC3)cc2Cl)cc1 3480
COc1cccc(-c2ccc(NC(=O)c3ccsc3C(=O)O)c(F)c2)c1 9070
O=C(O)C1=C(C(=O)Nc2c(F)c(F)c(-c3cccc(OC(F)(F)F)c3)c(F)c2F)CCC1 210

Form field: EC90 recorded for O=C(Nc1c(F)c(F)c(-c2cccc(OC(F)(F)F)c2)c(F)c1F)c1ccsc1C(=O)O with HIV-191US005 (enter value) 300

Form field: EC90 recorded for O=C(Nc1ccc(-c2ccccc2)cc1)Nc1ccccc1C(=O)O with HIV-191US005 (enter value) 210

Form field: EC90 recorded for O=C(O)C1=C(C(=O)Nc2c(F)c(F)c(-c3cccc(OC(F)(F)F)c3)c(F)c2F)CSC1 with HIV-191US005 (enter value) 3020

Form field: EC90 recorded for O=C(O)C1=C(C(=O)Nc2c(F)cc(-c3ccccc3Cl)cc2F)CSC1 with HIV-191US005 (enter value) 2590

Form field: EC90 recorded for O=C(O)C1=C(C(=O)Nc2ccc(OCc3c(F)cccc3Cl)c(Cl)c2)CCC1 with HIV-191US005 (enter value) 700
